- Organism: Rattus norvegicus
- Procedure Summary: Inhibition of soluble guanylyl cyclase in rat aortic smooth muscle cells assessed as inhibition of SNP-stimulated cGMP formation by immunoassay
Calls of active or inactive are those of the source. The rule behind the calls is not given here.
# valid calls are active, inactive; nothing else

{"Smiles Record": "O=c1[nH]nc2n1-c1cc(Br)ccc1OC2", "Assigned Class": "inactive"}

// query I would be grateful if you could indicate the recorded call for O=c1c2ccccc2nc2n1-c1ccccc1OC2 .
// result inactive

// query I would be grateful if you could indicate the recorded call for O=c1c2ccccc2nc2n1-c1cc(Br)ccc1OC2 .
// result inactive

// query I would be grateful if you could indicate the recorded call for O=C1c2ccccc2-n2c(noc2=O)[C@@H]2CCCN12 .
// result inactive

// query I would be grateful if you could indicate the recorded call for O=c1onc2cnc3ccccc3n12 .
// result active

====

- Species: Rattus norvegicus
- Procedure Summary: Inhibition of soluble guanylyl cyclase in rat aortic smooth muscle cells assessed as inhibition of SNP-stimulated cGMP formation at 0.1 uM by immunoassay
Calls of active or inactive are those of the source. The calls are words filed in the database; no cut-off is given here.
Measured Property: inhibition

The following compounds have reported results that may help.
{"Smiles Record": "O=c1c2ccc(Cl)cc2nc2n1-c1ccccc1OC2", "Measured Property": "inhibition", "Meas Value": "Active"}
{"Smiles Record": "O=c1onc2n1-c1cc(-c3cccc(C(F)(F)F)c3)ccc1OC2", "Measured Property": "inhibition", "Meas Value": "Active"}
{"Smiles Record": "COc1ccc(-c2ccc3c(c2)-n2c(noc2=O)CO3)cc1", "Measured Property": "inhibition", "Meas Value": "Active"}
{"Smiles Record": "O=c1onc2n1-c1ncccc1OC2", "Measured Property": "inhibition", "Meas Value": "Active"}

Shift focus to the following entry.
// query Report measured inhibition; entry is O=c1onc2cnc3ccccc3n12
// result 85%

Where these numbers come from: ChEMBL document CHEMBL1159051
